The values you see were collected from patent US11260049B2.

Give measured pIC50 for each item. Keep answers brief.
assayed-target: human TRPV4 (Homo sapiens (Human), UniProt Q9HBA0)
Sequence (Q9HBA0 whole entry): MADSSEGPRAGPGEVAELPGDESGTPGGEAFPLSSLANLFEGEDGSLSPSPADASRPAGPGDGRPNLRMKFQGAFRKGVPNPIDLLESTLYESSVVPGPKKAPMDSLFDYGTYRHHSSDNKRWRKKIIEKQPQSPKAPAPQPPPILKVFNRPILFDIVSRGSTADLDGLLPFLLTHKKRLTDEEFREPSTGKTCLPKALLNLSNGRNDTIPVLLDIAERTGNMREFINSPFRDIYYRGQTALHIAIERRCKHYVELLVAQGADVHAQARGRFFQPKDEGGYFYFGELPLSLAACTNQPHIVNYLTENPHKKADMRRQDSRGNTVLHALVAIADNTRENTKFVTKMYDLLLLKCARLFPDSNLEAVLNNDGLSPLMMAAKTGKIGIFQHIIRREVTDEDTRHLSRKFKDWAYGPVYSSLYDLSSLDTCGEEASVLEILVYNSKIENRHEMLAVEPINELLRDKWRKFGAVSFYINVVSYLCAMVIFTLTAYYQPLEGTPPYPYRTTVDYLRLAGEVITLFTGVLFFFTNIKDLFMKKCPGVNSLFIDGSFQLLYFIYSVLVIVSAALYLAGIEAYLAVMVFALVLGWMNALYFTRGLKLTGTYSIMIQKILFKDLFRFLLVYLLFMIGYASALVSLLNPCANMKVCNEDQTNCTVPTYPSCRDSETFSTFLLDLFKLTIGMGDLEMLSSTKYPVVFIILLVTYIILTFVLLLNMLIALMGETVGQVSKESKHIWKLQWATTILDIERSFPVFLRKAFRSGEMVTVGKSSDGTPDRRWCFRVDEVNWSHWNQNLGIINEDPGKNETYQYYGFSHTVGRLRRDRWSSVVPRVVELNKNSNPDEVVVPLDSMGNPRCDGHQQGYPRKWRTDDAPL
assay-name: FLIPR assay for hTRPV4 expressed in BHK cells
Format: cell-based
experimental-setup: inhibition of Agonist Compound (EC80)-induced calcium signal; BHK/AC9 cells expressing human TRPV4; read-out: IC50
pIC50: −log10 of the molar value.

Given the compound N#Cc1ccc(S(=O)(=O)[C@H]2CN(S(=O)(=O)c3ccc(C(F)(F)F)cc3Cl)C[C@@]2(O)CO)cc1Cl [Example 101] , what is its reported pIC50?
7.00 to 8.00

Reported pIC50, compound N#Cc1ncccc1S(=O)(=O)N1C[C@H](S(=O)(=O)c2ccc(Cl)cc2)[C@](O)(CO)C1 [Example 111] : ____
7.00 to 8.00

Can you look up the measured pIC50 of O=S(=O)(c1ccc(Cl)nc1)[C@H]1CN(S(=O)(=O)c2ccc(C(F)(F)F)cc2Cl)C[C@@]1(O)CO [Example 99] for me?
7.00 to 8.00

Need pIC50 of N#Cc1ccc(S(=O)(=O)[C@H]2CN(S(=O)(=O)c3ccc(F)cc3Cl)C[C@]2(O)CO)cc1F [Example 5] , thanks.
7.00 to 8.00

Which pIC50 reading was recorded for the compound N#Cc1ccc(S(=O)(=O)[C@H]2CN(S(=O)(=O)c3ccc(C(F)(F)F)cc3Cl)C[C@@]2(O)CO)cn1 [Example 92] ?
7.00 to 8.00

What does the data say about its pIC50? Entry: N#Cc1ccc(S(=O)(=O)[C@H]2CN(S(=O)(=O)c3ccccc3C(F)(F)F)C[C@@]2(O)CO)cc1 [Example 41]
7.00 to 8.00

If you can, please state the reported pIC50 value of N#Cc1ccc(S(=O)(=O)N2C[C@H](S(=O)(=O)c3ccc(Cl)cc3)[C@](O)(CO)C2)c(Cl)c1 [Example 2] .
8.00 to 10.00

Report pIC50 for N#Cc1ccc(S(=O)(=O)[C@H]2CN(S(=O)(=O)c3ccc(F)cc3Cl)C[C@@]2(O)CO)cc1F [Example 12] please.
8.00 to 10.00

* * *

Exercise: for every item that follows, state its recorded IC50.
assayed-target: human TRPV4 (Homo sapiens (Human))
assay-name: FLIPR assay for hTRPV4 expressed in BHK cells
Type: cell-based
experimental-setup: inhibition of Agonist Compound (EC80)-induced calcium signal; BHK/AC9 cells expressing human TRPV4; read-out: IC50

Find the recorded IC50 belonging to N#Cc1ccccc1S(=O)(=O)N1C[C@H](S(=O)(=O)c2ccc(C(F)(F)F)cc2)[C@](O)(CO)C1 and report it.
10 to 100 nM

Quick one: IC50 for N#Cc1cc(F)c(S(=O)(=O)[C@H]2CN(S(=O)(=O)c3ccc(Cl)cc3Cl)C[C@@]2(O)CO)cc1F ?
10 to 100 nM

Which IC50 is listed for N#Cc1cc(F)c(S(=O)(=O)[C@H]2CN(S(=O)(=O)c3ccc(Cl)cc3Cl)C[C@]2(O)CO)cc1F ?
10 to 100 nM

Please report the recorded IC50 for CCCc1ccc(S(=O)(=O)[C@H]2CN(S(=O)(=O)c3ccc(C#N)cc3Cl)C[C@@]2(O)CO)cc1 .
10 to 100 nM

Give its IC50 value. Item: Cc1cc(C#N)ccc1S(=O)(=O)N1C[C@H](S(=O)(=O)c2ccc(Cl)cc2)[C@](O)(CO)C1
10 to 100 nM

So what does the record say about IC50 for N#Cc1ccc(S(=O)(=O)[C@H]2CN(S(=O)(=O)c3ccc(C(F)F)cc3Cl)C[C@@]2(O)CO)cc1 ?
10 to 100 nM

// query IC50 value for entry N#Cc1ccc(S(=O)(=O)[C@H]2CN(S(=O)(=O)c3ccc(Br)cc3C(F)(F)F)C[C@@]2(O)CO)cc1
0.1 to 10 nM

Report IC50 for N#Cc1ccc(S(=O)(=O)N2C[C@H](S(=O)(=O)c3ccc(Cl)cc3)[C@](O)(CO)C2)c(C(F)(F)F)c1 please.
0.1 to 10 nM

If you can, please state the reported IC50 value of N#Cc1ccc(S(=O)(=O)N2C[C@H](S(=O)(=O)c3cnc(C(F)(F)F)nc3)[C@](O)(CO)C2)c(Cl)c1 .
10 to 100 nM

Any idea what IC50 was measured for O=S(=O)(c1cnc(C(F)(F)F)nc1)[C@H]1CN(S(=O)(=O)c2ccc(Cl)cc2Cl)C[C@@]1(O)CO ?
10 to 100 nM

Would you kindly share the measured IC50 for N#Cc1ccc(S(=O)(=O)N2C[C@H](S(=O)(=O)c3ccc(C(F)(F)F)cc3)[C@](O)(CO)C2)c(Cl)c1 ?
0.1 to 10 nM

Quick check: IC50 of C[C@H](O)[C@]1(O)CN(S(=O)(=O)c2ccc(C#N)cc2Cl)C[C@@H]1S(=O)(=O)c1ccc(Cl)cn1 ?
0.1 to 10 nM

Recorded IC50 for O=S(=O)(c1ccc(Cl)c(F)c1)[C@H]1CN(S(=O)(=O)c2ccc(C(F)(F)F)cc2Cl)C[C@@]1(O)CO , please?
10 to 100 nM

Which IC50 reading was recorded for the compound O=S(=O)(c1ccc(Cl)cc1)[C@H]1CN(S(=O)(=O)c2ccc(Cl)cc2C(F)F)C[C@@]1(O)CO ?
10 to 100 nM

* * *

assayed-target: human TRPV4 (Homo sapiens (Human))
assay-name: FLIPR assay for hTRPV4 expressed in BHK cells
Type: cell-based
experimental-setup: inhibition of Agonist Compound (EC80)-induced calcium signal; BHK/AC9 cells expressing human TRPV4; read-out: IC50
Assignment: determine reported IC50 for the given molecules.

Tell me reported IC50 for O=S(=O)(c1ccc(C(F)(F)F)cn1)[C@H]1CN(S(=O)(=O)c2ccc(Cl)cc2Cl)C[C@@]1(O)CO [Example 116] , tested with human TRPV4 (Homo sapiens (Human)).
10 to 100 nM

Form field: IC50 recorded for O=S(=O)(c1ccc(Cl)c(F)c1)[C@H]1CN(S(=O)(=O)c2ccc(Cl)cc2Cl)C[C@@]1(O)CO [Example 88] with human TRPV4 (Homo sapiens (Human)) (enter value)
0.1 to 10 nM

// fetch human TRPV4 (Homo sapiens (Human)) IC50 for CCOc1cc(C#N)ccc1S(=O)(=O)N1C[C@H](S(=O)(=O)c2ccc(Cl)cc2)[C@](O)(CO)C1 [Example 49]
10 to 100 nM

Given the entry COc1cc(Cl)ccc1S(=O)(=O)N1C[C@H](S(=O)(=O)c2ccc(C#N)cc2)[C@](O)(CO)C1 [Example 51] , what IC50 was observed with human TRPV4 (Homo sapiens (Human))?
10 to 100 nM

API: value(readout= IC50, system= human TRPV4 (Homo sapiens (Human)), query= N#Cc1ccc(S(=O)(=O)N2C[C@H](S(=O)(=O)c3ccc(C(F)(F)F)nc3)[C@](O)(CO)C2)c(Cl)c1 [Example 26] )
10 to 100 nM

Hi! What's the reported IC50 for N#Cc1ccc(S(=O)(=O)N2C[C@H](S(=O)(=O)c3ccc(C#N)c(F)c3)[C@](O)(CO)C2)c(Cl)c1 [Example 10] on human TRPV4 (Homo sapiens (Human))?
0.1 to 10 nM

Give IC50 (human TRPV4 (Homo sapiens (Human))) of the following molecule: N#Cc1ccc(S(=O)(=O)[C@H]2CN(S(=O)(=O)c3ccc(F)cc3Br)C[C@@]2(O)CO)cc1 [Example 22]
10 to 100 nM

What measured IC50 is associated with C[C@@H](O)[C@]1(O)CN(S(=O)(=O)c2ccc(C#N)cc2Cl)C[C@@H]1S(=O)(=O)c1ccc(Cl)cn1 [Example 120] on human TRPV4 (Homo sapiens (Human))?
0.1 to 10 nM

Report IC50 for N#Cc1ccc(S(=O)(=O)[C@H]2CN(S(=O)(=O)c3ccc(C(F)(F)F)cc3Br)C[C@@]2(O)CO)cc1 [Example 32] tested on human TRPV4 (Homo sapiens (Human)).
10 to 100 nM

Provide the documented IC50 with human TRPV4 (Homo sapiens (Human)) as the system for COc1cc(C#N)ccc1S(=O)(=O)N1C[C@H](S(=O)(=O)c2ccc(Cl)cc2)[C@](O)(CO)C1 [Example 35]
0.1 to 10 nM

// lookup IC50 | system=human TRPV4 (Homo sapiens (Human)) | key= N#Cc1ccc(S(=O)(=O)N2C[C@H](S(=O)(=O)c3ccc(C(F)(F)F)nc3)[C@](O)(CO)C2)c(C(F)(F)F)c1 [Example 27]
10 to 100 nM

Given the entry N#Cc1c(F)cc(S(=O)(=O)[C@H]2CN(S(=O)(=O)c3ccc(Cl)cc3Cl)C[C@@]2(O)CO)cc1F [Example 87] , what IC50 was observed with human TRPV4 (Homo sapiens (Human))?
0.1 to 10 nM

Notebook entry, human TRPV4 (Homo sapiens (Human)) assay: IC50 of N#Cc1ccc(S(=O)(=O)N2C[C@H](S(=O)(=O)c3ccc(Cl)cc3)[C@](O)(CO)C2)c(C(F)F)c1 [Example 48] = ?
0.1 to 10 nM

Param readout = IC50; param system = human TRPV4 (Homo sapiens (Human)); param query = N#Cc1ccc(S(=O)(=O)[C@H]2CN(S(=O)(=O)c3ccc(Cl)cc3Cl)C[C@@]2(O)CO)cc1F [Example 83] ; response: value
0.1 to 10 nM

Could you share what IC50 was measured for N#Cc1ccc(S(=O)(=O)[C@H]2CN(S(=O)(=O)c3cc(F)c(Cl)cc3Cl)C[C@@]2(O)CO)cc1 [Example 63] , tested on human TRPV4 (Homo sapiens (Human))?
10 to 100 nM

Tell me reported IC50 for N#Cc1ccc(S(=O)(=O)[C@H]2CN(S(=O)(=O)c3ccc(OC(F)(F)F)cc3Cl)C[C@@]2(O)CO)cc1F [Example 15] , tested with human TRPV4 (Homo sapiens (Human)).
10 to 100 nM

So what IC50 did N#Cc1ccc(S(=O)(=O)N2C[C@H](S(=O)(=O)c3ccc(Cl)cc3)[C@@](O)(CN)C2)cc1 [Example 127] get with human TRPV4 (Homo sapiens (Human))?
10 to 100 nM

IC50 of N#Cc1ccc(S(=O)(=O)[C@H]2CN(S(=O)(=O)c3ccc(C(F)(F)F)cc3Cl)C[C@@]2(O)CO)cc1F [Example 14] on human TRPV4 (Homo sapiens (Human))?
0.1 to 10 nM

Can you look up IC50 on human TRPV4 (Homo sapiens (Human)) for N#Cc1ccc(S(=O)(=O)[C@H]2CN(S(=O)(=O)c3ccc(C(F)(F)F)cc3Cl)C[C@]2(O)CO)cc1F [Example 7] ?
10 to 100 nM

Param readout= IC50; system= human TRPV4 (Homo sapiens (Human)); entry= COc1cc(C#N)ccc1S(=O)(=O)N1C[C@H](S(=O)(=O)c2ccc(C(F)(F)F)cc2)[C@](O)(CO)C1 [Example 56] ; returns value.
10 to 100 nM

Param readout = IC50; param system = human TRPV4 (Homo sapiens (Human)); param query = N#Cc1ccc(S(=O)(=O)[C@H]2CN(S(=O)(=O)c3ccccc3Br)C[C@@]2(O)CO)cc1 [Example 33] ; response: value
10 to 100 nM

# query: IC50 | item CCc1ccc(S(=O)(=O)[C@H]2CN(S(=O)(=O)c3ccc(C#N)cc3Cl)C[C@@]2(O)CO)cc1 [Example 104] | system: human TRPV4 (Homo sapiens (Human))
10 to 100 nM

Hello, I am looking for reported IC50 with human TRPV4 (Homo sapiens (Human)) for N#Cc1ccc(S(=O)(=O)N2C[C@H](S(=O)(=O)c3ccc(Cl)cc3)[C@](O)(CN)C2)cc1 [Example 126] . Could you help?
10 to 100 nM

human TRPV4 (Homo sapiens (Human)) / IC50 / N#Cc1ccc(S(=O)(=O)N2C[C@H](S(=O)(=O)c3ccc(Cl)cc3)[C@@](O)(CNCC(F)(F)F)C2)c(Cl)c1 [Example 128] : value?
10 to 100 nM

Kindly state the measured IC50 obtained for N#Cc1ccc(S(=O)(=O)N2C[C@H](S(=O)(=O)c3ccc(C(F)(F)F)cn3)[C@](O)(CO)C2)c(Cl)c1 [Example 110] with human TRPV4 (Homo sapiens (Human)).
10 to 100 nM

Write down the reported IC50 of O=S(=O)(c1ccc(Cl)c(F)c1)[C@H]1CN(S(=O)(=O)c2ccc(C(F)(F)F)cc2Cl)C[C@]1(O)CO [Example 78] , test system: human TRPV4 (Homo sapiens (Human)).
10 to 100 nM

Give human TRPV4 (Homo sapiens (Human)) IC50 for N#Cc1ccc(S(=O)(=O)[C@H]2CN(S(=O)(=O)c3ccc(C(F)(F)F)cc3F)C[C@@]2(O)CO)cc1F [Example 69]
10 to 100 nM

Fill in the recorded IC50 for this molecule, with human TRPV4 (Homo sapiens (Human)) as test system: N#Cc1ccc(S(=O)(=O)N2C[C@H](S(=O)(=O)c3ccc(C(F)(F)F)cc3)[C@](O)(CO)C2)c(OC2CC2)c1 [Example 57]
10 to 100 nM
